Measured phospho-S6 immunofluorescence (z-score), listed per entry for reference.
# Test system: MDA-MB-468
# testName: phospho-S6 immunofluorescence (DAPI-normalised), per-plate z-score; higher = higher phospho-S6 signal (less pathway suppression)
# measurementSetup: co-treatment: lapatinib 1 uM; 24 h
Lab note: record just the number, no unit beside it.

[[record]]
compound = "O=c1cc(CN2CCOCC2)occ1OCCCCCSc1ccnc2cc(C(F)(F)F)ccc12 (compound 10 µM)"
target = "MDA-MB-468"
recordedmetric = "phospho-S6 immunofluorescence (z-score)"
recordedresult = -3.04

[[record]]
compound = "CCC(=O)O[C@]1(C(=O)CCl)[C@@H](C)C[C@H]2[C@@H]3CCC4=CC(=O)C=C[C@]4(C)[C@@]3(F)[C@@H](O)C[C@@]21C [Clobetasol propionate] (compound 10 µM)"
target = "MDA-MB-468"
recordedmetric = "phospho-S6 immunofluorescence (z-score)"
recordedresult = -0.09


Task: Reported phospho-S6 immunofluorescence (z-score) for CC1(C)O[C@@H]2C[C@H]3[C@@H]4CCC5=CC(=O)C=C[C@]5(C)[C@@]4(F)[C@@H](O)C[C@]3(C)[C@]2(C(=O)CO)O1 [Triamcinolone (acetonide)] (compound 10 µM) : what is it?
Result: 1.39

Task: Could you tell me which phospho-S6 immunofluorescence (z-score) is on file for O=C(Nc1ccc([N+](=O)[O-])cc1O)Nc1ccccc1Br (compound 10 µM) ?
Result: 0.89

Task: Any idea what phospho-S6 immunofluorescence (z-score) was measured for Cc1c(CC(=O)O)c2cccnc2n1Cc1ccc(S(C)(=O)=O)cc1C(F)(F)F [Fevipiprant] (compound 10 µM) ?
Result: -1.74

* * *

Recorded phospho-S6 immunofluorescence (z-score), one value per entry.
# Test system: MDA-MB-468
# testName: phospho-S6 immunofluorescence (DAPI-normalised), per-plate z-score; higher = higher phospho-S6 signal (less pathway suppression)
# measurementSetup: co-treatment: vehicle; 24 h
Counter-ions that a name gives are not always drawn.
Give the value as a plain number.

Worked cases, phospho-S6 immunofluorescence (z-score) given:
[[record]]
compound = "OCc1cc(C(O)CNCCCCCCOCCCCc2ccccc2)ccc1O (configuration not stated) [Salmeterol (xinafoate)] (compound 10 µM)"
target = "MDA-MB-468"
recordedmetric = "phospho-S6 immunofluorescence (z-score)"
recordedresult = 2.28

[[record]]
compound = "COc1cc2c(NC3CCN(C(C)C)CC3)nc(N3CCC(F)(F)CC3)nc2cc1OCCCN1CCCC1 (compound 10 µM)"
target = "MDA-MB-468"
recordedmetric = "phospho-S6 immunofluorescence (z-score)"
recordedresult = 1.97

[[record]]
compound = "Cc1noc(-c2ccc(-c3ccc(CC(=O)O)cc3)cc2)c1NC(=O)OC(C)c1ccccc1Cl (configuration not stated) (compound 10 µM)"
target = "MDA-MB-468"
recordedmetric = "phospho-S6 immunofluorescence (z-score)"
recordedresult = 0.02

[[record]]
compound = "O=c1ccccn1CC1(O)CCN(Cc2ccccc2)CC1 (compound 10 µM)"
target = "MDA-MB-468"
recordedmetric = "phospho-S6 immunofluorescence (z-score)"
recordedresult = 0.48

[[record]]
compound = "Cc1cc(Cn2cnc3c2CC(C(=O)O)N(C(=O)C(c2ccccc2)c2ccccc2)C3)ccc1N(C)C (configuration not stated) (compound 10 µM)"
target = "MDA-MB-468"
recordedmetric = "phospho-S6 immunofluorescence (z-score)"
recordedresult = 0.29

[[record]]
compound = "C[C@H](NC(=O)c1c(C(F)F)nn(C)c1Oc1cccc(C(F)(F)F)c1)c1ccc(C(=O)O)cc1 (compound 10 µM)"
target = "MDA-MB-468"
recordedmetric = "phospho-S6 immunofluorescence (z-score)"
recordedresult = -0.56


Pending compound:
Task: Name the reported phospho-S6 immunofluorescence (z-score) value associated with the compound CC(=O)OCC(=O)NCCCOc1cccc(CN2CCCCC2)c1 [Roxatidine (Acetate Hydrochloride)] (compound 10 µM)
Result: 0.91
